The measurements presented in this section are drawn from ChEMBL document CHEMBL4811220.

test: Half life in mouse liver microsomes measured upto 40 mins by LC-MS/MS analysis
condition-notes: microsomes
measured-metric: half-life at 40 min (min)
Only the number, expressed in min, is required.

Suppose we examine the compound CC(C)NCC(O)COc1cccc2ccccc12 (stereo unspecified) ; what half-life at 40 min value has been reported? 54.3

----------
test: Selective index, ratio of IC50 for human HepG2-A16-CD81EGFP cells to IC50 for antiplasmodial activity against liver stage exo-erythrocytic forms of Plasmodium berghei sporozoites infected in human HepG2-A16-CD81EGFP cells
Give selectivity ratio for every item shown.

Suppose we examine the compound CN(C)c1ccc(C(=O)N(Cc2ccc(C(=O)NO)cc2)C(C)(C)C(=O)NCc2ccccc2)cc1 ; what selectivity ratio value has been reported? > 12

// query: O=C(CN(Cc1ccc(C(=O)NO)cc1)C(=O)c1cccc2ccccc12)NCc1ccccc1 20

// query: CC(C)c1ccc(C(=O)N(Cc2ccc(C(=O)NO)cc2)C(C)(C)C(=O)NCc2ccccc2)cc1 > 6
